test system: HCC-2998 colon; assay: NCI-60 one-dose screen, 48 h; details: 10 µM unless noted
Compounds without any hit were thinned out: in the full panel of roughly 83,000, 20% have a hit. The source made the active and inactive calls. The calls were made as follows: active = growth percent below 10; inactive = the rest.
Select the matching outcome among yes (1) = active, no (0) = inactive

COMPOUND	TARGET_DESC	DISCRETE_LABEL
CCOC(=O)c1c(NC(=O)C2CCCCC2C(=O)O)sc2c1CCCC2 (configuration not stated)	HCC-2998 colon	no (0)
NC(=O)N/N=C/c1ccc(Br)o1	HCC-2998 colon	no (0)
COC(=O)[C@]12CC[C@@H](C)[C@H](C)[C@@H]1C1=CC[C@@H]3[C@@]4(C)C[C@@H](OC(=O)c5ccco5)[C@H](O)[C@@](C)(CO)[C@@H]4[C@H](O)C[C@@]3(C)[C@]1(C)CC2	HCC-2998 colon	yes (1)
CC(c1cc(Cl)ccc1O)c1cc(Cl)ccc1O	HCC-2998 colon	no (0)
COc1ccc2nc(NC(=O)c3cc(-c4ccc(F)cc4)n4nc(-c5ccccc5)cc4n3)sc2c1	HCC-2998 colon	no (0)

Ask: Write down the call the test reported for this compound. Item: `CC(C)(C)c1ccc(S(=O)(=O)O)s1`
Result: no (0)

Ask: Per the assay record, what outcome was assigned to `COc1ccc(-c2noc(N)c2-c2cc(OC)c3c(c2)OCO3)cc1` ?
Result: no (0)

Ask: What did this assay record as the result for `Cc1ccc2c(c1)O/C(=C\c1ccc([N+](=O)[O-])o1)C2=O` ?
Result: no (0)

Ask: Tell me the recorded outcome of this test for `O=C(OCCBr)c1ccc(Cl)c([N+](=O)[O-])c1` .
Result: no (0)

Ask: Give the logged outcome of this assay for the following compound: `O[C@@H]1Cc2ccc3ccccc3c2N[C@H](c2ccoc2)C1`
Result: no (0)

* * *

Please respond with reported growth for every item in the list.
system: OVCAR-5 ovarian; test: NCI-60 one-dose screen, 48 h (100 = growth as untreated, 0 = no growth, -100 = all killed); details: 10 µM unless noted
About 83,000 compounds went through this panel and 20% of them were active in at least one assay; those are over-represented in the sample as a whole.
Give bare numbers, in %.

Please give growth, item by item, for the list that follows.
1. COc1cc(C(=O)/C=C/c2cccnc2Nc2ccccc2)cc(OC)c1OC
2. O=C(CN1CCCCC1)Sc1nnc2sc3ccccc3n12
3. Cc1c(NCc2nnc3n(Cc4ccccc4)c(=O)c4c5c(sc4n23)CCCC5)c(=O)n(-c2ccccc2)n1C

Result:
1: -71.2; 2: 144; 3: 107

Hello, I would appreciate it if you could give growth for each entry below.
1. COc1ccc(COC(C)=O)cc1
2. OCc1nnn(-c2ccccc2)c1CO
3. Oc1ccccc1/C=N\Nc1ccccc1

Result:
1: 98.1; 2: 112; 3: 55.5

Please look at the items below and tell me growth for each one, in order.
1. CCN1C[C@@H](C)n2c(c(O)c3c(=O)n(Cc4ccc(F)c(Cl)c4)nc(C(=O)NC)c32)C1=O
2. C=C(C)[C@@H]1C/C=C(/C=O)CC[C@@H]2O[C@@]2(C)CC/C=C(\C)CC1
3. Clc1ncn[nH]1
4. CCCCCCC(C)(O)c1ccccc1 (configuration not stated)
5. COc1ccc2c(c1)C(=O)/C(=C/c1ccc([N+](=O)[O-])s1)O2
6. O=C(Nc1ccc(Cl)cc1)Nc1ccc(Oc2nncc3ccccc23)cc1

Result:
1. 88.6
2. 97.2
3. 107
4. 98.5
5. 32.9
6. -16
